In this section we review reported relative biological activity (CTLL2 cell proliferation) values for a set of binders.
Target: T1, high-affinity receptor IL-2Rα/β/γ on CTLL2 cells (mouse-derived cell line) (mouse, UniProt P01590 22-268; P16297 27-539; P34902 23-369)
T1 sequence (looked up) 1: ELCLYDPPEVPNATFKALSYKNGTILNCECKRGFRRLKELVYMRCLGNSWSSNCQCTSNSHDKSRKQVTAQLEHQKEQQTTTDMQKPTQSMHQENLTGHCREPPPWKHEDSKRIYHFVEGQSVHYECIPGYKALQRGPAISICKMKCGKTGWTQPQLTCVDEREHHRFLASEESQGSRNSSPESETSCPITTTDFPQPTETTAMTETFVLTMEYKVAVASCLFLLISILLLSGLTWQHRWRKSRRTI
T1 sequence (looked up) 2: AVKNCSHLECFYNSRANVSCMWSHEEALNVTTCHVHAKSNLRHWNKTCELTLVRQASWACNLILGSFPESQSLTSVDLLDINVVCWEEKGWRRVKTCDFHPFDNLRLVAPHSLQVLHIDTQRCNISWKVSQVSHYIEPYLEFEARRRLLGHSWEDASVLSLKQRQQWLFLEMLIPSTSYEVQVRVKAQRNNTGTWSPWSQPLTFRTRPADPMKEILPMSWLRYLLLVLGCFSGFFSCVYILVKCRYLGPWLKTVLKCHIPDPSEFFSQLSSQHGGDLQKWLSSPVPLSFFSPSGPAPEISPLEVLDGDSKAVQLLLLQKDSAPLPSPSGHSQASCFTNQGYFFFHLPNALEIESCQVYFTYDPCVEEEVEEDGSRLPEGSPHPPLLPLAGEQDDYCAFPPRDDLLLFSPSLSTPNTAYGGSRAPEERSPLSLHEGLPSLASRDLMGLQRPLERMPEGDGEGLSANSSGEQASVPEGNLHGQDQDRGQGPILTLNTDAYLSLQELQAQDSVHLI
T1 sequence (looked up) 3: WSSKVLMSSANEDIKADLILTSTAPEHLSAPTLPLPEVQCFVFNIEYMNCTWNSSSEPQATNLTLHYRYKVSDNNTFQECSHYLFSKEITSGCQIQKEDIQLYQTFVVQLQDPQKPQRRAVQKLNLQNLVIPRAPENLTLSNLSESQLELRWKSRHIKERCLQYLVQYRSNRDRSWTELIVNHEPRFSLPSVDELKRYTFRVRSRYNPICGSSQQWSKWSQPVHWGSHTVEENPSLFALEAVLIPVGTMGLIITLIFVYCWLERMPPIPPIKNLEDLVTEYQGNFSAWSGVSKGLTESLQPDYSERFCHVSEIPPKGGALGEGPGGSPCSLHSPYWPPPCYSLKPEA
Assay: cell-based or functional assay
Please state the figure in %; there is no need to write the unit.

Reference set (3 entries):
binder: IL-2-22 (N26Q/N29S/F42A/N71Q/L72G) (ligand) MAPTSSSTKKTQLQLEHLLLDLQMILQGISNYKNPKLTRMLTAKFYMPKKATELKHLQCLEEELKPLEEVLQGAQSKNFHLRPRDLISNINVIVLELKGSETTFMCEYADETATIVEFLNRWITFAQSIISTLT
unit text: %
recorded number: 0.9

binder: PEGylated IL-2-10 (ligand, mono-PEGylated with 20 kDa mPEG-butyraldehyde (sodium cyanoborohydride); site not stated, also called PEG-IL-2-10) MAPTSSSTKKTQLQLEHLLLDLQMILQGINSYKNPKLTRMLTAKFYMPKKATELKHLQCLEEELKPLEEVLNGAQSKNFHLRPRDLISNINVIVLELKGSETTFMCEYADETATIVEFLNRWITFAQSIISTLT
unit text: %
recorded number: 0.2

binder: PEGylated IL-2-22 (ligand, mono-PEGylated with 20 kDa mPEG-butyraldehyde (sodium cyanoborohydride); site not stated, also called PEG-IL-2-22) MAPTSSSTKKTQLQLEHLLLDLQMILQGISNYKNPKLTRMLTAKFYMPKKATELKHLQCLEEELKPLEEVLQGAQSKNFHLRPRDLISNINVIVLELKGSETTFMCEYADETATIVEFLNRWITFAQSIISTLT
unit text: %
recorded number: 0.1

Which relative biological activity (CTLL2 cell proliferation) reading was recorded for the binder IL-2-10 (N26Q/N30S/F42A/L72G) (ligand, The entry already carries the mutations and C125A and begins with M. Made in E. coli) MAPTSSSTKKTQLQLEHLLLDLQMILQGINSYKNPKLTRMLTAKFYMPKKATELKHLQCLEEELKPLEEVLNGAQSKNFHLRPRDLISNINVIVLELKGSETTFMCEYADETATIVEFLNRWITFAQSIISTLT ?
1
